# target-under-test: BbCDPK1 (Besnoitia besnoiti)
# Sequence (A0A290U7L2 1-497): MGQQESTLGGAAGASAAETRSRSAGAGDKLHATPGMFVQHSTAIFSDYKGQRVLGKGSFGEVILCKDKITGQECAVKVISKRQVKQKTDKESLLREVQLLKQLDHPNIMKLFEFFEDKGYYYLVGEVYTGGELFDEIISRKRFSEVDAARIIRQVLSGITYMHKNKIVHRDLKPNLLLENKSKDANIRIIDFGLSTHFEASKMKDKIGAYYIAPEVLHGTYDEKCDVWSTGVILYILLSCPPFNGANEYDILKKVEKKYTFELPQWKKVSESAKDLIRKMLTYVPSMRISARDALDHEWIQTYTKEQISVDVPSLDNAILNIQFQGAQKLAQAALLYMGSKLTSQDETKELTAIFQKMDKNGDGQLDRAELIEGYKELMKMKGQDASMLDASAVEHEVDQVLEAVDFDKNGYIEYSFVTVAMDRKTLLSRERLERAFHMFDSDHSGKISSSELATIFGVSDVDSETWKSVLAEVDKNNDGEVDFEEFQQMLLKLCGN
experimental-readout: IC50 (nM)

>>> recorded_number("CCOc1ccc2cc(-c3nn(CC4CCN(C)CC4)c4ncnc(N)c34)ccc2c1 [Compound 150]")
4

====

# target-under-test: TgCDPK1 (Toxoplasma gondii)
# experiment-summary: biochemical
pIC50: −log10 of the molar value.
Attribute: pIC50
experimental-readout: pIC50

>>> recorded_number("Nc1ncnc2c1c(-c1ccc3nc(OC4CC4)ccc3c1)nn2CC1(O)CCC1")
8.21
>>> recorded_number("Nc1ncnc2c1c(-c1ccc3cc(OC4CC4)ccc3c1)nn2CC1(CO)COC1")
8.54
>>> recorded_number("Nc1ncnc2c1c(-c1ccc3cc(OC(F)F)ccc3c1)nn2CC1CCNCC1")
8.72
>>> recorded_number("Nc1ncnc2c1c(-c1ccc3nc(OC4CC4)ccc3c1)nn2CC1(O)CCNCC1")
9.15
>>> recorded_number("CCOc1ccc2cc(-c3nn(CC4(O)CCNCC4)c4ncnc(N)c34)ccc2c1")
7.63
>>> recorded_number("Nc1ncnc2c1c(-c1ccc3nc(OC4CC4)ccc3c1)nn2CC1(CO)COC1")
8.44
>>> recorded_number("COCCOc1ccc2cc(-c3nn(CC(C)C)c4ncnc(N)c34)ccc2c1")
8.77
>>> recorded_number("CCOc1ccc2cc(-c3nn(CC(C)(C)CO)c4ncnc(N)c34)ccc2n1")
8.77
>>> recorded_number("CCOc1ccc2cc(-c3nn(CC(C)(C)CO)c4ncnc(N)c34)ccc2c1")
8.92

====

# target-under-test: TgCDPK1 (Toxoplasma gondii, UniProt Q9BJF5)
# Sequence (Q9BJF5 1-507): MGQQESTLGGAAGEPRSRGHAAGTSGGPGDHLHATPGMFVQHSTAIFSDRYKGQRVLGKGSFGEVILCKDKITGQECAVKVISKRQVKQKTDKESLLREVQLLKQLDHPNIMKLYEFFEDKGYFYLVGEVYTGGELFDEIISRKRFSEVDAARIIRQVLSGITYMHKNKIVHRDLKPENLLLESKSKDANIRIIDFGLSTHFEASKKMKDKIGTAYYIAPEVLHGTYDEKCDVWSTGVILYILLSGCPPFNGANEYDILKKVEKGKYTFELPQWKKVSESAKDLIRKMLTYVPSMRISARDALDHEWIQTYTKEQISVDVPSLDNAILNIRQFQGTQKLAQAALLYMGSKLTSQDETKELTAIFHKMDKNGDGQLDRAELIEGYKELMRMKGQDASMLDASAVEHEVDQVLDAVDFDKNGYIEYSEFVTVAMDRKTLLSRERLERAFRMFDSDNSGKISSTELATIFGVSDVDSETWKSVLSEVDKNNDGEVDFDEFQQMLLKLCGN
# experiment-summary: biochemical
In plain terms, low IC50, meaning strictly below 40 nM, gives Condition met, and everything else gives Condition not met.

>>> discrete_label("CC(C)(O)C(C)(C)Cn1nc(-c2ccc3nc(OC4CC4)ccc3c2)c2c(N)ncnc21")
"Condition not met"
>>> discrete_label("Nc1ncnc2c1c(-c1ccc3cc(OC4COC4)ccc3c1)nn2CC1CCOCC1")
"Condition met"
>>> discrete_label("Nc1ncnc2c1c(-c1ccc3cc(OCC4CC4)ccc3c1)nn2CC1CCOCC1")
"Condition met"
>>> discrete_label("CC(C)(O)Cn1cc(-c2ccc3nc(OC4CC4)ccc3c2)c2c(N)ncnc21")
"Condition met"
>>> discrete_label("Nc1ncnc2c1c(-c1ccc3nc(OC4CC4)ccc3c1)nn2CC1(O)CCCC1")
"Condition met"
>>> discrete_label("CCOc1ccc2cc(-c3nn(CC4(C#N)CCN(C)CC4)c4ncnc(N)c34)ccc2n1")
"Condition not met"
>>> discrete_label("COCCOc1ccc2cc(-c3nn(CC4CCN(C)CC4)c4ncnc(N)c34)ccc2n1")
"Condition met"
>>> discrete_label("CN1CCC(Cn2nc(-c3ccc4cc(OC(F)F)ccc4c3)c3c(N)ncnc32)CC1")
"Condition met"

====

# experiment-summary: physchem
# condition-details: water, pH 6.5, aqueous buffer
experimental-readout: Solubility (µM)

>>> recorded_number("COc1ccc2cc(-c3nn(CC4CCOCC4)c4ncnc(N)c34)ccc2n1")
8

====

# Test system: SnCDPK1
# experiment-summary: Recombinant SnCDPK1 inhibition
# Type: biochemical, Sarcocystis neurona
experimental-readout: IC50 (nM)

>>> recorded_number("CCOc1ccc2cc(-c3nn(CC4CCN(C)CC4)c4ncnc(N)c34)ccc2c1 [Compound 150]")
5.9
>>> recorded_number("CC(C)(O)Cn1nc(-c2ccc3nc(OC4CC4)ccc3c2)c2c(N)ncnc21 [Example 25]")
7.5

====

Attribute: pIC50
# target-under-test: TgCDPK1 (Toxoplasma gondii, UniProt Q9BJF5)
# experiment-summary: biochemical
pIC50: −log10 of the molar value.
experimental-readout: pIC50

>>> recorded_number("CC(C)Cn1nc(-c2ccc3cc(OCC(C)(C)O)ccc3c2)c2c(N)ncnc21")
8.24
>>> recorded_number("CN1CCC(O)(Cn2nc(-c3ccc4cc(OC5CC5)ccc4c3)c3c(N)ncnc32)CC1")
8.35
>>> recorded_number("CC(C)(COCCO)Cn1nc(-c2ccc3nc(OC4CC4)ccc3c2)c2c(N)ncnc21")
5.92
>>> recorded_number("CCOc1ccc2cc(-c3nn(CC4(O)CCN(C)CC4)c4ncnc(N)c34)ccc2c1")
7.23

====

Attribute: IC50
# target-under-test: TgCDPK1 (Toxoplasma gondii, UniProt Q9BJF5)
# experiment-summary: biochemical
experimental-readout: IC50

>>> result("CC(C)(O)Cn1cc(-c2ccc3cc(OC4CC4)ccc3c2)c2c(N)ncnc21 [Example 58]")
"9.1 nM"
>>> result("CN1CC(O)(Cn2nc(-c3ccc4nc(OC5CC5)ccc4c3)c3c(N)ncnc32)C1 [Example 103]")
"4.8 nM"
>>> result("CCOc1ccc2cc(-c3nn(CC4(O)CCNCC4)c4ncnc(N)c34)ccc2n1 [Example 84]")
"4 nM"
>>> result("CC(C)n1nc(-c2ccc3cc(OC4COC4)ccc3c2)c2c(N)ncnc21 [Example 116]")
"6.1 nM"
>>> result("Nc1ncnc2c1c(-c1ccc3nc(OC4CC4)ccc3c1)nn2CC(O)(C(F)(F)F)C(F)(F)F [Example 53]")
"47.3 nM"
>>> result("Nc1ncnc2c1c(-c1ccc3nc(OC4CC4)ccc3c1)nn2CC1CCNCC1 [Example 39]")
"1 nM"
>>> result("CC(C)n1nc(-c2ccc3cc(OCC(C)(C)O)ccc3c2)c2c(N)ncnc21 [Example 117]")
"3 nM"
>>> result("CCOc1ccc2cc(-c3nn(CC4(C#N)CCN(C)CC4)c4ncnc(N)c34)ccc2c1 [Example 75]")
"18.3 nM"
>>> result("COC(C)(C)Cn1nc(-c2ccc3cc(OC4CC4)ccc3c2)c2c(N)ncnc21 [Example 66]")
"1660 nM"
>>> result("Nc1ncnc2c1c(-c1ccc3cc(OC4CC4)ccc3c1)nn2CC1(O)CCNCC1 [Example 78]")
"0.7 nM"
>>> result("COC(=O)C(C)(C)Cn1nc(-c2ccc3nc(OC4CC4)ccc3c2)c2c(N)ncnc21 [Example 69]")
"43.2 nM"
>>> result("COc1ccc2cc(-c3nn(CC4CCOCC4)c4ncnc(N)c34)ccc2n1 [Example 27]")
"21.2 nM"
>>> result("N#CC1(Cn2nc(-c3ccc4cc(OC(F)F)ccc4c3)c3c(N)ncnc32)CCNCC1 [Example 100]")
"2.5 nM"
>>> result("CCOc1ccc2cc(-c3nc(CC4CCN(C)CC4)n4ccnc(N)c34)ccc2c1 [Example 115]")
"18.6 nM"
>>> result("Nc1ncnc2c1c(-c1ccc3nc(OC4CC4)ccc3c1)nn2CC1(O)CNC1 [Example 101]")
"3 nM"
>>> result("COC(=O)C(C)(C)Cn1nc(-c2ccc3cc(OC4CC4)ccc3c2)c2c(N)ncnc21 [Example 68]")
"9.7 nM"
>>> result("CC(C)Cn1nc(-c2ccc3cc(OC4COC4)ccc3c2)c2c(N)ncnc21 [Example 35]")
"4 nM"

====

Attribute: IC50
# target-under-test: TgCDPK1 (Toxoplasma gondii)
# experiment-summary: biochemical
experimental-readout: IC50 (nM)

>>> recorded_number("CCOc1ccc2cc(-c3nn(CC4(O)CNC4)c4ncnc(N)c34)ccc2c1 [Example 96]")
7.8
>>> recorded_number("CCOc1ccc2cc(-c3nn(CC4(C#N)CCNCC4)c4ncnc(N)c34)ccc2n1 [Example 86]")
1.5
>>> recorded_number("CN1CCC(C#N)(Cn2nc(-c3ccc4cc(OC5CC5)ccc4c3)c3c(N)ncnc32)CC1 [Example 83]")
3.5
>>> recorded_number("CCOc1ccc2cc(-c3nn(CC4(O)CN(C)C4)c4ncnc(N)c34)ccc2c1 [Example 97]")
2.6
>>> recorded_number("Nc1ncnc2c1c(-c1ccc3cc(OC4CC4)ccc3c1)nn2CC1(O)CCCC1 [Example 61]")
13
>>> recorded_number("Nc1ncnc2c1c(-c1ccc3cc(OC4CC4)ccc3c1)nn2CC(=O)N1CCOCC1 [Example 51]")
15.8
>>> recorded_number("CN1CC(Cn2nc(-c3ccc4nc(OC5CC5)ccc4c3)c3c(N)ncnc32)C1 [Example 41]")
2.8
>>> recorded_number("CN1CCC(O)(Cn2nc(-c3ccc4cc(OC(F)F)ccc4c3)c3c(N)ncnc32)CC1 [Example 99]")
35.8
